tested-system: CoV-2 (SARS-CoV-2)
attribute-measured: xmid (log10)
Note: the reply should be a number with no unit written.

Worked examples, 2 binders total:
Exercise: Recall and state the measured xmid (log10) for vhh_tstrep_sars2_pjl1_L_32 (VHH) VHH: QVQLQESGGGLVQAGGSLRLSCAASGRTFSEYAMGWFRQAPGKEREFVATISWSGGSTYYTDSVKGRFTISRDNAKNTVYLQMNSLKPDDTAVYYCAAAGLGTVVSAWDYDYDYWGQGTQVTVSS .
Solution: 0.239

Exercise: Recall and state the measured xmid (log10) for vhh_tstrep_sars2_pjl1_L_1 (VHH) VHH: QVQLQESGGGLVQAGGSLRLSCAASGRTFSEYAMGWFRQAPGKEREFVATISWSGGSTYYTDSVKGRFTISRDNAKNTVYLQMNSLKPDDTAVYYCGAAGLGTVVSEWDYDYDYWGQGTQVTVSS .
Solution: 0.903

We next turn to a different binder, shown below.
Exercise: Recall and state the measured xmid (log10) for vhh_tstrep_sars2_pjl1_L_22 (VHH) VHH: QVQLQESGGGLVQAGGSLRLSCAASGRTFSEYAMGWFRQAPGKEREFVATISASGGSTYYTDSVKGRFTISRDNAKNTVYLQMNSLKPDDTAVYYCAAAGLGTVVSEWDYDYDYWGQGTQVTVSS .
Solution: 1.08
